Values compiled from patent US20220339143A1.

Assay Protocol: Single dose PK in patients with narcolepsy (Cohorts 5, 6 and 7), plasma
Format: in vivo, human
Condition Details: human, plasma, iv, 11.2 mg; 2 hr; NT1, single 9 h IV infusion; read-out: Plasma concentration, Mean
Property Name: concentration at 2 h

INSERT INTO results (structure_notation, result) VALUES
  ('COC(=O)N1CCC[C@H](NS(C)(=O)=O)[C@@H]1CO[C@H]1CC[C@@H](c2ccccc2)CC1', '17.3 ng/mL');

----------
Assay Protocol: Single dose PK in healthy subjects (Cohorts 1, 2, S1 and S2), plasma
Assay type: in vivo, human
Condition Details: human, plasma, intravenous, 56 mg; 6 hr; read-out: Plasma concentration, Minimum
Property Name: concentration at 6 hr (ng/mL)

INSERT INTO assay_data (structure_notation, property_name, numeric_value) VALUES
  ('COC(=O)N1CCC[C@H](NS(C)(=O)=O)[C@@H]1CO[C@H]1CC[C@@H](c2ccccc2)CC1', 'concentration at 6 hr', 73.5);
